Data origin: PubChem BioAssay (NCI)

Provide the recorded TGI for the entries that follow.
# Tested on: SW-620 colon
# Assay: NCI tumour cell line growth inhibition, 48 h

[[record]]
compound = "COc1ccc([C@H]2c3cc4c(cc3OC(O)(CO)[C@H]2C(=O)O)OCO4)c(OC)c1 (stereo not given in full) (tested in a mixture with another compound)"
recorded_measurement = "> 100 µM"

[[record]]
compound = "C[C@]12CC[C@H](O)CC1=CC[C@@H]1[C@@H]2CC[C@]2(C)C(=O)/C(=C/c3ccc([N+](=O)[O-])cc3)C[C@@H]12"
recorded_measurement = "> 100 µM"

[[record]]
compound = "CC(C)C[CH2][Ge]([CH2]CC(C)C)([CH2]CC(C)C)[CH2]CC(C)C"
recorded_measurement = "> 100 µM"

[[record]]
compound = "O=C(CSCC(=O)N/N=C\\c1ccccc1F)N/N=C\\c1ccccc1F"
recorded_measurement = "> 100 µM"

[[record]]
compound = "O=C(c1ccccc1O)c1cc(-c2ncc3c(=O)c4ccccc4oc3n2)c(-c2ccccc2O)[nH]c1=O"
recorded_measurement = "> 77.1 µM"

[[record]]
compound = "COc1ccc(/C=C\\c2cc(OC)c(OC)c(OC)c2)cc1OCC(=O)Nc1nc2ccccc2s1"
recorded_measurement = "> 100 µM"

[[record]]
compound = "CN1C(=O)CCC1c1ccc2c(c1)oc(=O)n2C (stereo not given)"
recorded_measurement = "> 100 µM"

[[record]]
compound = "CNc1ccc([N+](=O)[O-])c2c(NCCCN(C)C)ccnc12"
recorded_measurement = "> 100 µM"


# batch: return TGI for each of the 4 compounds below
1. CC[C@H](C)[C@H](NC(=O)NC(C)(C)C)C(=O)N(C)[C@H](C[C@@H](OC(C)=O)c1nc(C(=O)N[C@@H](Cc2ccccc2)C[C@H](C)C(=O)OC)cs1)C(C)C
2. O=C(Nc1ccc(Nc2ccncc2)cc1)c1ccc(Nc2ccnc3ccc([N+](=O)[O-])cc23)cc1[N+](=O)[O-]
3. O=C(Cc1csc2nc(-c3ccc(Br)cc3)cn12)N/N=C/c1ccc(Cl)cc1Cl
4. CC(C)C1=C(Cc2ccccc2)C(=O)O/C1=C\c1ccc(O)c(Cl)c1

1. > 25 µM
2. > 55.5 µM
3. 60.2 µM
4. 34.9 µM

# batch: return TGI for each of the 2 compounds below
1. O=c1[nH]nc(Cc2ccc(Cl)cc2)n1/N=C/c1c[nH]c2ccccc12
2. CCOc1cc2c(=O)oc3c(OC)ccc4ccc(c1OC)c2c43

> 100 µM
> 100 µM

# batch: return TGI for each of the 3 compounds below
1. O=C1CC(c2ccsc2)c2snc(-c3ccc(Cl)cc3)c2N1 (stereo not given)
2. NC(CCc1ncc(-c2ccccc2)s1)C(=O)O (stereo not given)
3. Cn1nc2ccc3nccc(NCCNCCO)c3c2n1

["> 100 µM", "> 100 µM", "> 100 µM"]

* * *

# Test system: NCI-H522 lung
# Assay: NCI tumour cell line growth inhibition, 48 h
Provide the recorded TGI for the entries that follow.

Field: example entries. Status: answers known.
[[record]]
compound = "Oc1ccc(Oc2cnc3cc(Cl)ccc3n2)cc1"
observable = "TGI"
recorded_measurement = "> 100 µM"

[[record]]
compound = "CN(C)C=NCC(O)c1ccccc1 (configuration not stated)"
observable = "TGI"
recorded_measurement = "> 100 µM"

[[record]]
compound = "O=C1C=C(O)c2c(O)ccc(O)c2C1=O"
observable = "TGI"
recorded_measurement = "> 100 µM"

[[record]]
compound = "COc1ccc(Cn2c3ccc([N+](=O)[O-])cc3c(=O)n2Cc2ccccn2)cc1"
observable = "TGI"
recorded_measurement = "> 100 µM"

[[record]]
compound = "O=C1CCCCN1C(=O)c1ccc([N+](=O)[O-])cc1"
observable = "TGI"
recorded_measurement = "> 100 µM"

[[record]]
compound = "O=C(NN1C(=O)C(Cl)C1c1ccccc1Cl)c1ccccc1O (configuration not stated)"
observable = "TGI"
recorded_measurement = "> 100 µM"


# batch: return TGI for each of the 5 compounds below
1. Nc1ccccc1OCCCOc1ccccc1N
2. COc1ccc(/C=N\NC(=O)c2ccc3nc(-c4ccc(Cl)cc4)[nH]c3c2)cc1
3. CCOC(=O)C(NC(=O)CC)(Nc1ccc(S(=O)(=O)Nc2ccc(OC)nn2)cc1)C(F)(F)F (configuration not stated)
4. CN(C)c1ccc2cc3ccc(N(C)C)cc3nc2c1
5. O=C(Nc1ccc(Sc2ccc(N=Nc3c(O)c(S(=O)(=O)O)cc4cc(S(=O)(=O)O)ccc34)cc2)cc1)c1ccc(N=Nc2c(O)c(S(=O)(=O)O)cc3cc(S(=O)(=O)O)ccc23)cc1

1. > 100 µM
2. 81.5 µM
3. > 100 µM
4. 7.56 µM
5. 35.4 µM

* * *

# System: OVCAR-5 ovarian
# Assay: NCI tumour cell line growth inhibition, 48 h
Observable: TGI

[[record]]
compound = "O=C(CC(c1ccccc1)C(C(=O)c1ccncc1)C(CC(=O)c1ccncc1)c1ccccc1)c1ccncc1 (stereo not drawn)"
recorded_measurement = "> 100 µM"

[[record]]
compound = "OCC(O)COc1c(Cl)cc(Cl)cc1Cl (stereo not drawn)"
recorded_measurement = "> 100 µM"

[[record]]
compound = "C[N+]1([O-])[C@H]2CC(OC(=O)[C@H](CO)c3ccccc3)C[C@H]1[C@H]1O[C@H]12 (stereo partly drawn)"
recorded_measurement = "> 100 µM"

[[record]]
compound = "COc1ccc(/C=C\\c2cc(OC)c(OC)c(OC)c2)cc1OCC(=O)Nc1nc2ccccc2s1"
recorded_measurement = "> 100 µM"

[[record]]
compound = "CC(C)(C)OC(=O)n1c(Cl)c(C=O)c2ccccc21"
recorded_measurement = "72.3 µM"


# batch: return TGI for each of the 3 compounds below
1. O=C(/C=C/c1ccccc1)Oc1cccc(Br)c1
2. CN(C)CCNC(=O)c1c2ccccc2cc2ccccc12
3. Cc1ccc(-c2cc(-c3ccc(C)cc3)nc(N3CCN(CCNc4ccnc5cc(Cl)ccc45)CC3)n2)cc1

1. > 100 µM
2. > 100 µM
3. 17.6 µM

* * *

# Test system: NCI-H226 lung
# Assay: NCI tumour cell line growth inhibition, 48 h
Provide the recorded TGI for the entries that follow.

Field: example entries. Status: answers known.
[[record]]
compound = "NC1=Nc2ccccc2Sc2nc3ccccc3n21"
recorded_measurement = "> 100 µM"

[[record]]
compound = "CC(=O)OCCOCNC(=S)N/N=C(\\C)c1cccs1"
recorded_measurement = "> 100 µM"

[[record]]
compound = "CCN(CC)c1ccc2cc(C(N)=O)c(=Nc3ccc(F)cc3)oc2c1"
recorded_measurement = "> 100 µM"

[[record]]
compound = "CC1CCOc2ccc(cc2)C=Nc2ccc(cc2)-c2ccc(cc2)N=Cc2ccc(cc2)OCC1 (stereo unspecified)"
recorded_measurement = "> 100 µM"

[[record]]
compound = "COc1ccc(N=Nc2c(-c3ccccc3)nn(C(=O)CC(=O)Nc3ccccc3Cl)c2-c2ccccc2)cc1"
recorded_measurement = "> 100 µM"


Give the measured TGI of `O=C(c1nn(-c2ccc(Cl)cc2)cc1O)n1nc(C(F)(F)F)cc1-c1ccccc1` .
> 40.7 µM

* * *

# Test system: CAKI-1 renal
# Assay: NCI tumour cell line growth inhibition, 48 h
Observable: TGI

Field: example entries. Status: answers known.
[[record]]
item_smiles = "Cc1ccc2c(=O)cc(Cc3csc4ccccc34)[nH]c2n1"
observable = "TGI"
recorded_measurement = "> 100 µM"

[[record]]
item_smiles = "C[C@]12CC[C@H](O)CC1=CC[C@@H]1[C@@H]2CC[C@]2(C)C(=O)/C(=C/c3ccc([N+](=O)[O-])cc3)C[C@@H]12"
observable = "TGI"
recorded_measurement = "> 100 µM"


Give the measured TGI of `COc1cc(/C=C/C(=N\NC(=S)NN)c2sc(NNC(C)=O)nc2C)ccc1O` .
> 100 µM

* * *

Provide the recorded TGI for the entries that follow.
# System: DMS 114 small cell lung
# Assay: NCI tumour cell line growth inhibition, 48 h

Field: example entries. Status: answers known.
[[record]]
molecule = "O=C(Oc1ccc2c(-c3ccccc3)c(C(=O)Nc3ccc(Cl)cc3)c(=O)oc2c1)c1ccccc1"
observable = "TGI"
recorded_measurement = "> 100 µM"

[[record]]
molecule = "O=C(/C=C/c1ccccc1O)c1cccc2ccccc12"
observable = "TGI"
recorded_measurement = "> 92.2 µM"

[[record]]
molecule = "CN(C(=O)C12C3C4C1C1C2C3C41C(O)C(C)(C)C)C(C)(C)C (stereo unspecified)"
observable = "TGI"
recorded_measurement = "> 100 µM"


# batch: return TGI for each of the 3 molecules below
1. O=C(NN1C(=O)C(Cl)C1c1ccccc1Cl)c1ccccc1O (stereo unspecified)
2. CN(C)CCNC(=O)c1c2ccccc2cc2ccccc12
3. COc1cc(C(O)C(=O)c2cnc3cc([N+](=O)[O-])ccc3n2)ccc1O (stereo unspecified)

> 100 µM
> 100 µM
> 100 µM
